Test: in vitro
Conditions: SD, HW or BN, rat, plasma
REPORTED_ENDPOINT: fraction unbound at 5 h
API doc: respond with a numeric literal and nothing else, no unit.

Reference set (3 entries):
Need fraction unbound at 5 h of C[C@@H](Oc1ccccc1-c1cccc([N+](=O)[O-])c1)C1=NCCN1 , thanks.
0.403

Need fraction unbound at 5 h of COC[C@@H](O)Cn1c(=O)cnn(-c2ccc(Cl)c(C(=O)NCC3(O)CCCCCC3)c2)c1=O , thanks.
0.608

Need fraction unbound at 5 h of CC[C@H](C)C(=O)O[C@H]1C[C@H](O)C=C2C=C[C@H](C)[C@H](CC[C@@H](O)C[C@@H](O)CC(=O)O)[C@H]21 , thanks.
0.349

New cases:
Need fraction unbound at 5 h of CCC(C)NC(=O)c1c(C)nn(-c2ccccc2)c1NS(=O)(=O)c1ccc(C)cc1 (centres undefined) , thanks.
0.0335

====

Test: physchem
Conditions: octan-1-ol/water, pH 7.4, LogD7.4
REPORTED_ENDPOINT: logD
API doc: respond with a numeric literal and nothing else, no unit.

Reference set (8 entries):
Need logD of COc1cc(CO)cc(N(C)c2ccnc(Nc3cc(N4CCOCC4)cc(N4CCOCC4)c3)n2)c1 , thanks.
3

Need logD of O=c1oc2ccc(O)cc2cc1-c1ccccc1 , thanks.
3.12

Need logD of CNS(=O)(=O)Cc1ccc2[nH]cc(CCN(C)C)c2c1 , thanks.
-0.96

Need logD of Cc1oc(=O)oc1CN1CCN(c2cc3c(cc2F)c(=O)c(C(=O)O)c2n3C(C)S2)CC1 (stereo not given) [PRULIFLOXACIN] , thanks.
0.47

Need logD of CNC(=O)Nc1nc2ccc(-c3cncc(S(=O)(=O)NC(C)(C)C)c3)cn2n1 , thanks.
1.58

Need logD of CC(=O)Nc1ccc(Nc2ncc3cc(-c4ccncc4)ccc3n2)cc1 , thanks.
3.04

Need logD of CN(C)CCOC(C)(c1ccccc1)c1ccccn1 (stereo not given) [DOXYLAMINE] , thanks.
-0.2

Need logD of COc1ccc(C(=O)NCCN2CCN(Cc3ccc(Cl)c(Cl)c3)CC2)cc1Cl , thanks.
3.74

New cases:
Need logD of Oc1ccc(-c2nc3ccccc3s2)cc1 , thanks.
4.1

Need logD of Cc1cn([C@H]2CCCN(S(=O)(=O)c3ccc(O)c(Oc4ccc(Cl)cc4)c3)C2)c(=O)[nH]c1=O , thanks.
2.12

====

Assay: in vitro
Details: human, plasma, PPB
Output schema: class label derived from fraction unbound at 5 h. Mapping: 1 = under 0.03, 2 = from 0.03 up to 0.09, 3 = 0.09 and over

Here are 5 compounds together with their reported answers.
Sort into band: CC(O)(C(=O)Nc1ccc(S(=O)(=O)N2CCOCC2)cc1)C(F)(F)F (stereo not given)
3

Sort into band: CCCNC(=O)NS(=O)(=O)c1ccc(Cl)cc1 [CHLORPROPAMIDE]
2

Sort into band: O=C(Nc1ccc(Cl)c(S(=O)(=O)N2CCNCC2)c1O)Nc1cccc(F)c1Cl
1

Sort into band: O=C(Nc1ccc(Cl)cc1)Nc1nnc(-c2ccncc2)s1
1

Sort into band: O=C(Nc1ccc(Cl)c(C(=O)Nc2cncs2)c1)c1cccc(Cl)c1
1

New cases:
Sort into band: Cc1cn([C@H]2CCCN(Cc3ccc(C(=O)O)c(Oc4cccc(Br)c4)c3)C2)c(=O)[nH]c1=O
1

Sort into band: CCN(CC)S(=O)(=O)c1ccc(-c2nnc(SCC(=O)N3CCc4ccccc43)o2)cc1
1

Sort into band: CCC(C)NC(=O)c1c(C)nn(-c2ccccc2)c1NS(=O)(=O)c1ccc(C)cc1 (stereo not given)
1

Sort into band: NC(=O)c1ccc(N(C(N)=O)c2c(F)cccc2F)nc1-c1ccc(F)cc1F
3

Sort into band: N=C(NCCCCc1ccc(OCC(O)CO)cc1)NC(=O)c1nc(Cl)c(N)nc1N (stereo not given) [552-02 FREE BASE]
3

Sort into band: COc1ccc(-c2cc(N)n3ncc(C#N)c3n2)cc1
2

Sort into band: COc1ncc2ccc(=O)n(CCN3CCC(NCc4cc5c(cn4)OCCO5)CC3)c2n1
3

Sort into band: O=C(c1c2ccccc2cc2ccccc12)N1CCC(N2CCC[C@@H](C(=O)N3CCOCC3)C2)CC1
2

Sort into band: CC(=O)Nc1ccc2cnn(-c3cc(NC4CC4)n4ncc(C#N)c4n3)c2c1
1

Sort into band: CN(C)CCNC(=O)c1ccc(Nc2ncc3cc(-c4ccncc4)ccc3n2)cc1
1

Sort into band: CC(=O)N[C@H](C)c1ccc(Nc2ncc3cc(-c4ccncc4)c(C)cc3n2)cc1
1

Sort into band: O=c1[nH]c([C@@H]2CCCN2)nc2c1oc1ccc(Br)cc12
2

Sort into band: C[C@H](Nc1ccc2ncn(-c3cc(C4CC4)[nH]n3)c2n1)c1ncc(F)cn1
3

Sort into band: COCCOc1cc2ncc(C(N)=O)c(Nc3cc(C)ccc3F)c2cc1N1CCN(C)CC1
3

Sort into band: Nc1ncnc2nc(-c3ccc(N4CCOCC4)nc3)cc(-c3cccc(Br)c3)c12
2

Sort into band: CC#Cc1cncc(-c2cccc(C3(c4cc(C)c(OC)c(C)c4)N=C(C)C(N)=N3)c2)c1 (stereo not given)
1

Sort into band: COc1cc(Nc2nc3c(c(Cc4ccccc4)n2)CN(CCO)CC3)ccc1-n1cnc(C)c1
1

Sort into band: COc1ccc2nc(C)cc(N3CC(CNC(=O)C4CC4)OC3=O)c2c1 (stereo not given)
3

Sort into band: CNC(=O)c1snnc1-c1ccccc1
3
